- STUDY_TARGET: c-Met on cancer cells (MKN45 gastric cancer cells; NCI-H441 lung cancer cells) (human, UniProt P08581 25-1390)
- Sequence (P08581 25-1390): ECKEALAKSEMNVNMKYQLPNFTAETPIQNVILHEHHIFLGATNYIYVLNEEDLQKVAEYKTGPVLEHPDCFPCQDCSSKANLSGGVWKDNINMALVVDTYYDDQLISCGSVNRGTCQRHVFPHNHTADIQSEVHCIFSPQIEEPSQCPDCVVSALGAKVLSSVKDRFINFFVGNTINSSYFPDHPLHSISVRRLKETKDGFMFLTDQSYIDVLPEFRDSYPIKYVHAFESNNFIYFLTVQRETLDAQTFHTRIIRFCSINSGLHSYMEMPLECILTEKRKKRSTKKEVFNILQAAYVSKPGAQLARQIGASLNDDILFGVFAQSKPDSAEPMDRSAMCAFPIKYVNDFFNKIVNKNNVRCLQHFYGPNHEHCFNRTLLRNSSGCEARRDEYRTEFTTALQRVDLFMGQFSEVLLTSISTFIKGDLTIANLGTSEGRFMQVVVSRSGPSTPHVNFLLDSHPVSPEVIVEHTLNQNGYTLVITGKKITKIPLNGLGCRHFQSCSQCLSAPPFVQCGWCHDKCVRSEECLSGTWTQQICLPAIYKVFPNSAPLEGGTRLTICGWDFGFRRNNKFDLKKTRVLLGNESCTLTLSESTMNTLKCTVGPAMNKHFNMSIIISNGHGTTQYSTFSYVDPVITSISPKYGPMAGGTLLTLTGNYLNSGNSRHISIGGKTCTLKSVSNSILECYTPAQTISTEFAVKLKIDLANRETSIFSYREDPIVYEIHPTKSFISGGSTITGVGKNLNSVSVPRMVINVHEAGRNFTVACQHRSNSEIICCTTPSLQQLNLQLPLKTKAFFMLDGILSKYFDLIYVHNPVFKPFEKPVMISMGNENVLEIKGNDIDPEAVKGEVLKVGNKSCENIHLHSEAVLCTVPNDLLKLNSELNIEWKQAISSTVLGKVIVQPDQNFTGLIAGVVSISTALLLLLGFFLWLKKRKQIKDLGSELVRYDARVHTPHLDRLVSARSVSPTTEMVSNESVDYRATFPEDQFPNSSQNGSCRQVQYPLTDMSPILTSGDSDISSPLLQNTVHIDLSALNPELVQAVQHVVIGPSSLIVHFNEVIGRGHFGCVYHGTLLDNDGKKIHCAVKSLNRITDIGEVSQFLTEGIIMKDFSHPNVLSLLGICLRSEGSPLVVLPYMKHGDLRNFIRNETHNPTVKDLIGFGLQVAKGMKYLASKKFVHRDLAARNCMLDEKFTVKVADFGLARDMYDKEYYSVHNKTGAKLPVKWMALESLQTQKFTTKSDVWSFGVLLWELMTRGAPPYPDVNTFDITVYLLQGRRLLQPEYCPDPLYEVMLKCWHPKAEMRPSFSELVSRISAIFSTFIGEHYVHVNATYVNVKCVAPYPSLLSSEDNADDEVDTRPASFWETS
- MEASUREMENT_DESCRIPTION: cell-based or functional assay
This section presents binders with their documented BrdU assay on NCI-H441 cells (agonism); safety improved by, at 10 ug/ml values.
Field: numeric (%). Do not append units.

Examples with answers:
[[record]]
binder = "huAbF46-H4-A5 (antibody, IgG1, V domains shown, IgG1 constant region with U6-HC7 hinge, human kappa light chain; also called IgG from clone L3-5) VH: EVQLVESGGGLVQPGGSLRLSCAASGFTFTDYYMSWVRQAPGKGLEWLGFIRNKANGYTTEYSASVKGRFTISRDNSKNTLYLQMNSLRAEDTAVYYCARDNWFAYWGQGTLVTVSS VL: DIQMTQSPSSLSASVGDRVTITCKSSQSLLASGNQNNYLAWHQQKPGKAPKMLIIWASTRVSGVPSRFSGSGSGTDFTLTISSLQPEDFATYYCQQSYSRPFTFGQGTKVEIKR"
endpoint_unit = "%"
measurement = 21

[[record]]
binder = "huAbF46-H4-A1 (antibody, V domains shown, also called IgG from clone L3-1) VH: EVQLVESGGGLVQPGGSLRLSCAASGFTFTDYYMSWVRQAPGKGLEWLGFIRNKANGYTTEYSASVKGRFTISRDNSKNTLYLQMNSLRAEDTAVYYCARDNWFAYWGQGTLVTVSS VL: DIQMTQSPSSLSASVGDRVTITCKSSQSLLASGNQNNYLAWHQQKPGKAPKMLIIWASTRVSGVPSRFSGSGSGTDFTLTISSLQPEDFATYYCQQSYSRPYTFGQGTKVEIKR"
endpoint_unit = "%"
measurement = 25


Next up:
Noted for huAbF46-H4-A3 (antibody, IgG1, V domains shown, IgG1 constant region with U6-HC7 hinge, human kappa light chain; also called IgG from clone L3-3) VH: EVQLVESGGGLVQPGGSLRLSCAASGFTFTDYYMSWVRQAPGKGLEWLGFIRNKANGYTTEYSASVKGRFTISRDNSKNTLYLQMNSLRAEDTAVYYCARDNWFAYWGQGTLVTVSS VL: DIQMTQSPSSLSASVGDRVTITCKSSQSLLASGNQNNYLAWHQQKPGKAPKMLIIWASTRVSGVPSRFSGSGSGTDFTLTISSLQPEDFATYYCAQSYSHPFSFGQGTKVEIKR : its BrdU assay on NCI-H441 cells (agonism); safety improved by, at 10 ug/ml reads 13

Hey, just so you know, these numbers are from patent US20210269533A1.
